System: ECV-304
Assay: Cytotoxic activity against ECV304 (human endothelial) cell line.
Type: functional, cell-based
quantity measured: IC50

Consider the reported IC50 for these compounds:
compound	IC50
CC(C)[C@@H]1CC[C@]2(C(=O)O)CC[C@]3(C)C(CCC4[C@@]5(C)CC/C(=N\Nc6ccccc6)C(C)(C)C5CC[C@]43C)C12 (stereo partly drawn)	< 4 µg/mL
CC(C)[C@@H]1CC[C@]2(C(=O)O)CC[C@]3(C)C(CCC4[C@@]5(C)CC/C(=N\O)C(C)(C)C5CC[C@]43C)C12 (stereo partly drawn)	< 4 µg/mL

Attention now shifts to the item below.
Per the record, C=C(C)[C@@H]1CC[C@]2(C(=O)O)CC[C@]3(C)[C@H](CC[C@@H]4[C@@]5(C)CCC(=O)C(C)(C)[C@@H]5CC[C@]43C)[C@@H]12 has IC50 of < 4 µg/mL

----------
System: ECV-304
Experiment: Ratio of IC50 against PA-1 ovary tumor cell line to IC50 of human endothelial ECV304 cell line
Format: functional, Female gonad
quantity measured: ECS ratio

C=CC(=O)OC(=O)[C@]12CC[C@@H](C(=C)C)C1C1CCC3[C@@]4(C)CC[C@H](O)C(C)(C)C4CC[C@@]3(C)[C@]1(C)CC2 (stereo not given in full) yielded ECS ratio of >1

Given item CC(C)[C@@H]1CC[C@]2(C(=O)O)CC[C@]3(C)C(CCC4[C@@]5(C)CC[C@H](OC(=O)c6ccccc6C(F)(F)F)C(C)(C)C5CC[C@]43C)C12 (stereo not given in full) , the value recorded as its ECS ratio is >1.53

For record C=C(C)[C@@H]1CC[C@]2(C(=O)O)CC[C@]3(C)C(CCC4[C@@]5(C)CC[C@H](OC(=O)c6ccc(CCCCC)cc6)C(C)(C)C5CC[C@]43C)C12 (stereo not given in full) the listed ECS ratio is >2.1

Recorded ECS ratio (compound C=C(C)[C@@H]1CC[C@]2(C(=O)O)CC[C@]3(C)C(CCC4[C@@]5(C)CC[C@H](OC(=O)c6ccc(CCCCCCC)cc6)C(C)(C)C5CC[C@]43C)C12 (stereo not given in full) ): >2.3

Given item C=C(C)[C@@H]1CC[C@]2(C(=O)O)CC[C@]3(C)C(CCC4[C@@]5(C)CC[C@H](OC(=O)c6cccc(C(F)(F)F)c6)C(C)(C)C5CC[C@]43C)C12 (stereo not given in full) , the value recorded as its ECS ratio is >4.4
